Tested on: lacZ under control of the tetA promoter (PtetA) in E. coli KM3
Assay type: cell-based
Particulars: Table 6, reverse repressor hits; ethametsulfuron, same plate assay format (20 ppm)
Readout label: relative β-galactosidase activity, inducer Es
Reply: number alone, nothing else.

Find the recorded relative β-galactosidase activity, inducer Es belonging to L1-36: library L1 hit with reverse repressor activity (SEQ ID NO: 1206-1213) (protein, rSuR L1-36) MGSRLDKSKVINSALELLNEVGIEGLTTRKLAQKLGVEQPTLYWHVKNKRALLDALAIEMADRHHTHFCPLEGESWQDFLRNAAKSMRCALLSHRDGAKVRLGTAWTEKQYETHENVLAFLCQQGFSLENALYALKAVSGFTLGCVLKDQEMQVAKEERETPTTDSMPPLLRQATELVDHQGAEPAFLFGLELIICGLEKQLKCESGS and report it. 0.20

Source listed as patent US9206432B2.
